B1: CHIT1 (parent)
chain: CSWKGATKQRIQDQKVPYIFRDNQ

variants of: B1; assay: protein stability index of a GFP-peptide fusion (GPS, HEK-293T) (PSI 1-6); higher = more stable; conditions: c terminus: a fixed tail appended;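 further: lentivirally expressed fusions sorted by FACS into six bins by GFP to DsRed ratio, PSI derived from sequencing read proportions per bin multiplied by bin number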

mutation.key: D13M
protein stability index: 2.91

mutation.key: Q14H
protein stability index: 3.06

mutation.key: P17C
protein stability index: 2.75

mutation.key: D22T
protein stability index: 2.18

mutation.key: K4P
protein stability index: 3.33

mutation.key: I19E
protein stability index: 3.31

mutation.key: N23Q
protein stability index: 2.6

mutation.key: Q24M
protein stability index: 1.92
